Values were extracted from paper PMC3371024.

- Measured on: G2 EPSPS (Pseudomonas fluorescens, UniProt A1Z0H6)
- Construct: gene aroA
- Assay remarks: Pi release (Lanzetta reagent, […] nm); Km(obs) of PEP versus glyphosate
- Format: biochemical
- Settings: 1 mM S3P, varied PEP, 50 mM HEPES-NaOH pH 7.0, 100 mM KCl, 2 mM DTT, 25 °C; competitive with PEP; read-out: K i (glyphosate; μM)
Readout kind: Ki (µM)
Give the quantity in µM, number only.

INPUT: Please indicate Ki recorded for O=C(O)CNCP(=O)(O)O [glyphosate, N-phosphonomethyl glycine]
OUTPUT: 44.7
